test system: PC3 cells; test: MTT cytotoxicity assay; type: cell-based, Human; details: MTT, 72 h incubation
pIC50: −log10 of the molar value.
measure: pIC50

compound | quantitative.result
O=C(OCCC[P+](c1ccccc1)(c1ccccc1)c1ccccc1)C(Cl)Cl.[Br-] [TPP-DCA] | 4.17
O=C(CCCCC[P+](c1ccccc1)(c1ccccc1)c1ccccc1)NC(COC(=O)C(Cl)Cl)(COC(=O)C(Cl)Cl)COC(=O)C(Cl)Cl.[Br-] [MITO-DCA] | 4.77

Taken from patent US10004809B2.
